pIC50: −log10 of the molar value.
Reported pIC50 against Growth factor receptor-bound protein 2 (Homo sapiens, UniProt P62993), gathered from multiple publications, appears below.
Measure name: pIC50

Recorded pIC50, per entry:
Given the entry `Cc1ccc2c(ccn2CCCNC(=O)[C@H](CC(N)=O)NC(=O)C2(NC(=O)[C@H](Cc3ccc(C(C(=O)O)C(=O)O)cc3)NC(=O)C(=O)O)CCCCC2)c1` , report its measured pIC50.
8.10

Quick one: pIC50 for `CSCC[C@H]1NC(=O)CNC(=O)[C@@H](C(C)C)NC(=O)[C@@H](CC(N)=O)NC(=O)[C@@H](CCC(=O)O)NC(=O)[C@@H](Cc2ccc(O)cc2)NC(=O)[C@@H](CC(C)C)NC(=O)[C@@H](Cc2ccc(OP(=O)(O)O)cc2)NC(=O)CSC[C@H](C(N)=O)NC(=O)[C@@H](Cc2ccc(O)cc2)NC1=O` ?
4.56

Please report the recorded pIC50 for `NC(=O)C[C@H](NC(=O)C1(NC(=O)[C@H](Cc2ccc(CC(=O)O)cc2)NC(=O)C(=O)O)CCCCC1)C(=O)NCCCc1cccc2ccccc12` .
6.00

P. CC(=O)N[C@H]1CCCCNC(=O)[C@H]2CCCN2C(=O)[C@H](C(C)C)NC(=O)[C@@H](CC(N)=O)NC(=O)[C@H](C(C)C)NC(=O)[C@@H](Cc2ccc(OP(=O)(O)O)cc2)NC1=O
Q. CC(C)[C@H]1NC(=O)[C@H](Cc2ccc(OP(=O)(O)O)cc2)NC(=O)OCCCCCNC(=O)[C@@H]2CCCN2C(=O)[C@@H](C(C)C)NC(=O)[C@H](CC(N)=O)NC1=O
R. Cc1ccc2c(ccn2C[C@@H]2C/C=C/[C@H](c3ccc(C(C(=O)O)C(=O)O)cc3)[C@H](CC(=O)O)C(=O)NC3(CCCCC3)C(=O)N[C@@H](CC(N)=O)C(=O)NC2)c1
S. NC(=O)C[C@H](NC(=O)C1(NC(=O)CCc2ccc(CP(=O)(O)O)cc2)CCCCC1)C(=O)NCCCc1cccc2ccccc12
Put these in order: smallest pIC50 first, largest last. Give the labels in the order requested.
S, Q, P, R
